Values compiled from PubChem BioAssay (NCI).

Attribute: growth
# Test system: RPMI-8226 leukemia
# measurement_notes: NCI-60 one-dose screen, 48 h (100 = growth as untreated, 0 = no growth, -100 = all killed)
# condition_parameters: 10 µM unless noted
Compounds without any hit were thinned out: in the full panel of roughly 83,000, 20% have a hit.
Give a bare numeral; the unit % is implied.

*Q* Provide only the value of recorded growth for O=C(NOCCO)c1cc(CN2OCCCC2=O)c(F)c(F)c1Nc1ccc(I)cc1F
*A* 78.8

*Q* // fetch growth given entry CCCCCCCC(=O)SCC/C=C/[C@@H]1CC(=O)NCc2cc(ccn2)C2=N[C@@](C)(CS2)C(=O)N[C@@H](C(C)C)C(=O)O1
*A* 13.6

*Q* // Input: Nc1c2c(c(O)c3c1=C(CO)C=N3)=NCCS2 . Output its growth only.
*A* -30.8
